These measurements were taken from PubChem BioAssay (NCI).

For each entry below, report its growth value.
Tested on: NCI-H522 lung
Assay: NCI-60 one-dose screen, 48 h (100 = growth as untreated, 0 = no growth, -100 = all killed)
Conditions: 10 µM unless noted
Method: Growth inhibition of the NCI-H522 human Non-Small Cell Lung tumor cell line is measured as a screen for anti-cancer activity. Cells are grown in 96 well plates and exposed to the test compound for 48 hours. Compounds are tested at a single concentration, which is 10^-5 M for most compounds. The reported endpoint is percent growth (GI% or GIPRCNT), where numbers from 0 - 100% represent growth inhibition, and numbers from -100% - 0 represent cell death. […]
Compounds without any hit were thinned out: in the full panel of roughly 83,000, 20% have a hit.
Respond numerically; units are % and should not be typed.

Ask | Quick one: growth for `COc1ccc(/C=N/NC(=O)Cn2c(-c3ccc(S(C)(=O)=O)cc3)nc3cc(Cl)ccc32)cc1` ?
Reply | 2.78

Ask | Another compound to look at: CCCCOC(=O)c1ccc(NC(=O)C(C)N2CCOCC2)cc1 (stereo not drawn)
Reply | 67.9

Ask | Another compound to look at: `CCN1CCN(c2ccc(Nc3cc(-c4cccnc4Nc4c(Cl)c(OC)cc(OC)c4Cl)ncn3)cc2)CC1`
Reply | 75.9

Ask | Another compound to look at: CCOC(=O)C1C(=O)C=C(c2cnccn2)CC1c1ccc(OC)c(OC)c1 (stereo not drawn)
Reply | 73.3

Ask | Another compound to look at: `O=C(CCl)N1c2cccc3cccc(c23)N(C(=O)CCl)C1c1cn(-c2ccccc2)nc1-c1cccc([N+](=O)[O-])c1`
Reply | 77.1

Ask | Another compound to look at: `COc1ccc(-c2nc3ncccn3c2/C=C/C(=O)c2cc(OC)c(OC)c(OC)c2)cc1`
Reply | -44.6

Ask | Another compound to look at: `Cc1cc(-c2noc(C(F)(F)F)n2)ccc1N1CCN(c2cc(C(=O)N(C)C)no2)CC1`
Reply | 57

Ask | Another compound to look at: C=C1c2c(C)nn(-c3ccc(S(N)(=O)=O)cc3)c2N(C)C23CC1C1(C)c4c(C)nn(-c5ccc(S(N)(=O)=O)cc5)c4N(C)C(C)(CC12)C3 (stereo not drawn)
Reply | 44

Ask | Another compound to look at: OC(COc1cccc2ccccc12)CN1CCN(c2ccccc2)CC1 (stereo not drawn)
Reply | 101

Ask | Another compound to look at: O=C1C(Cl)C(c2ccccc2Cl)N1n1cnnc1 (stereo not drawn)
Reply | 92.9

Ask | Another compound to look at: `CCOc1cccnc1/C=N/NC(N)=S`
Reply | 79.1

Ask | Another compound to look at: CC(C)(C)OC(=O)N1Cc2cc3ccccc3nc2C1CO (stereo not drawn)
Reply | 110

Ask | Another compound to look at: `Nc1c(C(=O)c2ccccc2)nnc2ncnn12`
Reply | 88.5

Ask | Another compound to look at: `COc1ccc(Nc2ncc(Br)c(NCCCNC(=O)C3CCC3)n2)cc1`
Reply | 50.1

Ask | Another compound to look at: `O=C(CCCCCCCn1cc(-c2cccnc2)nn1)Nc1ccccc1-c1ccccc1`
Reply | 27.5

Ask | Another compound to look at: `C/C(=N\NC(=O)Cn1c(-c2ccc(S(C)(=O)=O)cc2)nc2cc(Cl)ccc21)c1ccc(Cl)cc1`
Reply | 74.9

Ask | Another compound to look at: `CC(C)(C)CC(C)(C)Nc1c(-c2ccc(-c3ccccc3)cc2)nc2cnccn12`
Reply | 37.5

Ask | Another compound to look at: `CCN(CC)CCOc1ccc(/C(=C(\C)c2ccc(OC)c(F)c2)c2ccc(Cl)cc2)cc1`
Reply | 86.1

Ask | Another compound to look at: C=C(CNCCc1ccc(O)cc1)[C@@H]1CC[C@]2(COC3CCCCO3)CC[C@]3(C)[C@H](CC[C@@H]4[C@@]5(C)CCC(N)C(C)(C)[C@@H]5CC[C@]43C)[C@@H]12 (stereo partly drawn)
Reply | -84.3

Ask | Another compound to look at: `O=C(NCc1cccnc1)c1cc(-c2csc3c(=O)cc(N4CCOCC4)oc23)cc2c1OCCO2`
Reply | 28.4

Ask | Another compound to look at: `C=C1C(=O)O[C@H]2[C@H]1CC/C(COC(=O)/C=C\C(=O)NCc1ccc(Cn3c(=O)sn(-c4ccc(Cl)cc4)c3=O)cc1)=C\CC[C@@]1(C)O[C@@H]21`
Reply | -55.9

Ask | Another compound to look at: `CC(C)N(CCOC(=O)Nc1ccccc1Cl)C(C)C`
Reply | 78.6

Ask | Another compound to look at: `Cc1nc(Nc2ccc(NC(=S)Nc3ccccc3)cc2)nc2nc(Nc3ccc(S(=O)(=O)O)cc3)[nH]c(=O)c12`
Reply | 86.9

Ask | Another compound to look at: `CC(=O)Nc1nccs1`
Reply | 87

Ask | Another compound to look at: `CC(=O)Nc1ccc(C(=O)/C=C/c2ccccc2)cc1`
Reply | 53

Ask | Another compound to look at: CC(C)OC(=O)OCOP(=O)(OCOC(=O)OC(C)C)C1CCCN(O)C1=O (stereo not drawn)
Reply | -6.81

Ask | Another compound to look at: `COc1cc2oc(-c3cccc(C(=O)Nc4ccc(C#N)cc4)c3)cc(=O)c2c(O)c1OC`
Reply | 61.2

Ask | Another compound to look at: O=C1c2ccccc2C2(c3ccc(O)cc3)c3ccccc3Oc3cccc1c32 (stereo not drawn)
Reply | 48.6

Ask | Another compound to look at: `c1ccc2c(c1)ncn2-c1nc2ccccc2n2c1nc1ccccc12`
Reply | 81.6

Ask | Another compound to look at: COc1cc(C2CC(=O)Nc3n[nH]c(-c4ccccc4)c32)cc(OC)c1OC (stereo not drawn)
Reply | 30.1

Ask | Another compound to look at: `COc1cc2c(cc1OC)-c1ccc3cc4c(cc3c1N(CCCN1CCCCC1)C2)OCO4`
Reply | 41.6

Ask | Another compound to look at: `CCOC(=O)c1cnn2c(-c3ccc(Cl)cc3)nc(NCc3ccccc3)nc12`
Reply | 81.5

Ask | Another compound to look at: `Cc1cccc(-c2cc(O)c(C(=O)N3CCOCC3)s2)c1`
Reply | 0.179

Ask | Another compound to look at: `COc1ccc(-c2cc(-c3ccc(Nc4nc(Nc5ccccc5)nc(Nc5ccc(Cl)cc5)n4)cc3)nc(N)n2)cc1`
Reply | 76.3

Ask | Another compound to look at: `CC(C)(C)Nc1c(-c2c3ccccc3cc3ccccc23)nc2ccccn12`
Reply | 59.1

Ask | Another compound to look at: O=C1CCC(N2C(=O)c3cccc(NCCCC4CCN(CCNC(=O)c5cc6c(o5)C(=O)c5ccccc5C6=O)CC4)c3C2=O)C(=O)N1 (stereo not drawn)
Reply | -51.7

Ask | Another compound to look at: `Clc1ccc(/C=N\N=c2\scc(-c3ccc(Cl)cc3)n2/N=C/c2ccc(Cl)cc2)cc1`
Reply | 68.7

Ask | Another compound to look at: `CC(=O)C(C(C)=O)c1nc2sc3cc(Cl)ccc3n2c(=N)c1C#N`
Reply | 83
